These measurements were taken from PubChem BioAssay AID1063.

Assay: Leishmania major promastigote growth inhibition, primary screen (AID 1063);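 note: promastigotes grown with compound for 44 hours at 28 °C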
Settings: Leishmania major promastigotes, resazurin fluorescence viability; at 10 µM
About 18,000 (9%) of roughly 200,000 compounds were called active. Cut-off read from the data, not from the text of the source: active = inhibition above about 50%; inactive = the rest. Shown is part of a subset that was picked to be rich in actives.
Parameter call: string, one of active, inactive

>  <compound>
CC(=O)NCC(=O)N1CCCC(C(=O)c2ccc3c4c(cccc24)CC3)C1 (configuration not stated)

>  <answer_label>
inactive

$$$$
>  <compound>
CSCCNCc1cn(-c2ccc(F)cc2F)nc1-c1ccccc1C

>  <answer_label>
inactive

$$$$
>  <compound>
COC(=O)[C@H](C)NC(=O)Nc1ccc(OC(F)(F)F)cc1

>  <answer_label>
inactive

$$$$

**Q:** Could you please tell me the result logged for O=C(O)C1C2CC2CN1C(=O)c1ccc(Cl)cc1Cl (configuration not stated) in this assay?
**A:** inactive

**Q:** Could you please tell me the result logged for `O=C(CN1CCCCC1)Nc1ccccc1Cl` in this assay?
**A:** inactive

**Q:** Could you please tell me the result logged for `O=C(NNC1=C(C(=O)C(F)(F)F)CCC1)c1ccncc1` in this assay?
**A:** inactive

**Q:** Could you please tell me the result logged for O=C(Nc1ccccc1Cl)/C(Cl)=C(\Cl)S(=O)c1ccccc1 (configuration not stated) in this assay?
**A:** active

**Q:** Could you please tell me the result logged for `CCOc1cc(NC(=S)NCc2ccco2)c(OCC)cc1NC(=O)c1ccco1` in this assay?
**A:** inactive

**Q:** Could you please tell me the result logged for `CCNC(=S)Nc1ccc(OC(F)(F)F)cc1` in this assay?
**A:** inactive

**Q:** Could you please tell me the result logged for `Cc1cccc(C)c1NC(=O)CNC(=O)Cc1ccc(Br)cc1` in this assay?
**A:** inactive

**Q:** Could you please tell me the result logged for `COCCNC(=S)Nc1cc(S(=O)(=O)N2CCOCC2)ccc1N1CCCCC1` in this assay?
**A:** inactive

**Q:** Could you please tell me the result logged for `O=C(NCCc1ccc(F)cc1)c1n[nH]c2ccccc12` in this assay?
**A:** inactive
